# protocol-notes: melting temperature; fluorescence melt of hairpins on a sequencing array, two-state fit, raised by 9.35 °C to match UV melts
# test-settings: sodium 0.088 M
endpoint: Tm (°C)
Answers are plain numbers, in °C.

Reference set (5 entries):
[[record]]
sequence_record = "GATCTGTTCTCAGATC ((((((....))))))"
endpoint = "Tm"
unit_info = "°C"
reported_measurement = 51.5

[[record]]
sequence_record = "GTAATGCCGAAAGGCTAC (((..(((....))))))"
endpoint = "Tm"
unit_info = "°C"
reported_measurement = 26.8

[[record]]
sequence_record = "GTCCCTCGAAAGAGGAC (((.(((....))))))"
endpoint = "Tm"
unit_info = "°C"
reported_measurement = 51.3

[[record]]
sequence_record = "GGTTACGAAAGTATCACC ((((((....)))..)))"
endpoint = "Tm"
unit_info = "°C"
reported_measurement = 28.2

[[record]]
sequence_record = "GATACCGAAAGGTATATC ((((((....)))..)))"
endpoint = "Tm"
unit_info = "°C"
reported_measurement = 45.2


Value sought for every listed sequence: Tm.
1. GCAGGAGGAAACTCCCAC (..((((....))))..)
2. GAGTCGGGAAACCGGTTC ((..(((....)))..))
3. GTCACCGAAAGGTTGAC ((((((....))).)))
4. GCGACTCGAAAGAGCGC (((.(((....))))))
5. CGCGGACCACTCCGCG ((((((....))))))
6. CGTCGGAAACGACG (((((....)))))
7. GGGCTGACGAAAGTCCCC (((..(((....))))))
8. GCTTCCGAAAGGAGAGC ((((((....))).)))

OUTPUT:
1. 25.8
2. 32.8
3. 51.4
4. 60.4
5. 64
6. 69.2
7. 42.8
8. 49.2

Batch of 4 sequences: report Tm for each.
1. GATCGTCTAGACGATC ((((((....))))))
2. GGCCTGGGAAACTAGGCC (((((.(....).)))))
3. GACCCTGGAAACAGAGTC (((.(((....))).)))
4. GCTTCCGAAAGGATGAGC ((((((....)))..)))

OUTPUT:
[59.7, 59.2, 36.6, 41.2]

For each of the sequences below, note its Tm.
1. GGGAGAGGAAACTCTTCC ((.((((....)))).))
2. GTAGGACGAAAGTCTAC (((.(((....))))))
3. GCTGGGCGAAAGCTAAGC (((..((....))..)))
4. GGATTACGAAAGTAGTCC (((.(((....))).)))
5. GCGTACAACGC ((((...))))
6. GGCTCCGAAAGGAAAGCC ((((((....)))..)))

OUTPUT:
45.5
43
53.9
50.9
55.6
54.3

I would be grateful if you could provide Tm for each of the following entries.
1. GATCTTAATGAAGATC ((((((....))))))
2. GCAGAGCGAAAGCATTGC (((..((....))..)))
3. GCCTATCCGAAAGGAGGC (((..(((....))))))
4. CGGCACGGAAACGTCCG (((.(((....))))))
5. CGACACGGAAACGTTCG (((.(((....))))))

OUTPUT:
[39.5, 49.9, 47.3, 47.9, 42]

Measured values drawn from the array DNA melting data of Ke et al. (doi:10.1101/2024.01.08.574731) for this set.
